Every entry's value here was drawn from the RNAGym collection of RNA variant scans (doi:10.1073/pnas.2313332121).

B1: TPR t1 (parent)
chain: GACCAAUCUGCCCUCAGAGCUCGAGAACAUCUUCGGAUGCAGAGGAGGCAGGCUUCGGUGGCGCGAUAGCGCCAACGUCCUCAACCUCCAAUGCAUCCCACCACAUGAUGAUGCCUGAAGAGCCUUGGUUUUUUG

Variants of: B1
Experiment Description: polymerase ribozyme fitness, log enrichment relative to wild type (log ratio); higher = more active; in vitro selection for triplet polymerase activity
Quantity: polymerase ribozyme fitness (log ratio)
Simply state the number, no unit and no words.

Reference set (3 entries):
| Mutant Designation | polymerase ribozyme fitness (log ratio) |
| --- | --- |
| C8U C64A C115U | -6.79 |
| C97G A103U | -5.1 |
| G39A G135U | -1.41 |

GET /value?item= C13U A37U G42U G63U C85U U112A &field=polymerase ribozyme fitness (log ratio) returns -3.9
